target: α-amylase from porcine pancreas type VI-B (Sus scrofa, UniProt P00690); construct: α-amylase from porcine pancreas type VI-B; purchased Sigma Aldrich (Steinheim, Germany) type VI-B (catalogue number not given); host or cells: porcine pancreas; assay: α-amylase inhibition assay (starch-iodine, spectrophotometric); assay type: biochemical; conditions: substrate starch from rice
Sequence (P00690 16-511): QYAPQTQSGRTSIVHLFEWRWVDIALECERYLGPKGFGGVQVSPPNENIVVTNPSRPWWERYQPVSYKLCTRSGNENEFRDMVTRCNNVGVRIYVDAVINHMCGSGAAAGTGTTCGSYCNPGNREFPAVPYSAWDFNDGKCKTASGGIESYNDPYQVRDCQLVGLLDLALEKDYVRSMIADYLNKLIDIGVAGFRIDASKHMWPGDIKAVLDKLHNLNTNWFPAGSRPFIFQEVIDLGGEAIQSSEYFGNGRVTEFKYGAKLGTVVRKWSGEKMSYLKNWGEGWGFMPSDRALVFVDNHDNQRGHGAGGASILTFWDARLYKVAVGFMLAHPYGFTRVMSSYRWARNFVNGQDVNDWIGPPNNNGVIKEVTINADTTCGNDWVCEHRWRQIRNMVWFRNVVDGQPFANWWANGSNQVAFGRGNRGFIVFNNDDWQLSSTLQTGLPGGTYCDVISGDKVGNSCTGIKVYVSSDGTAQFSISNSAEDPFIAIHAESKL
Measurement name: IC50
Don't forget the unit after the value.

Write down IC50 measured for item `O=C(/C=C/c1ccc(O)c(O)c1)O[C@@H]1C[C@](O)(C(=O)O)C[C@@H](O)[C@H]1O` 5.54 mM

----------
target: α-amylase from porcine pancreas (Sus scrofa); construct: α-amylase from porcine pancreas type VI-B; purchased Sigma Aldrich (Steinheim, Germany) type VI-B (catalogue number not given); host or cells: porcine pancreas; test: Mode of α-amylase inhibition (Lineweaver-Burk); assay type: biochemical; conditions: potato starch
Sequence (P00690 16-511): as above
Measurement name: Ki (mM)
Answers are plain numbers, in mM.

Find the measured Ki of `O=C(/C=C/c1ccc(O)c(O)c1)O[C@@H]1C[C@](O)(C(=O)O)C[C@@H](O)[C@H]1O` and report it. 3.46

----------
target: α-amylase from porcine pancreas (Sus scrofa); construct: α-amylase from porcine pancreas type VI-B; purchased Sigma Aldrich (Steinheim, Germany) type VI-B (catalogue number not given); host or cells: porcine pancreas; experiment: Mode of α-amylase inhibition (Lineweaver-Burk); assay type: biochemical; conditions: rice starch
Measurement name: pKi
Numbers only, as −log10 of the molar value.

Find the measured pKi of `O=C(/C=C/c1ccc(O)c(O)c1)O[C@@H]1C[C@](O)(C(=O)O)C[C@@H](O)[C@H]1O` and report it. 2.27

Reference for the values: paper PMC8235151
